B1: Arabidopsis thaliana cryptochrome 2 (CRY2, UniProt Q96524), residues 1-535 fused after the Gal4 DNA-binding domain (Gal4BD-CRY2(535)); mutagenized window 321-412, Q96524 (parent)
chain: MKMDKKTIVWFRRDLRIEDNPALAAAAHEGSVFPVFIWCPEEEGQFYPGRASRWWMKQSLAHLSQSLKALGSDLTLIKTHNTISAILDCIRVTGATKVVFNHLYDPVSLVRDHTVKEKLVERGISVQSYNGDLLYEPWEIYCEKGKPFTSFNSYWKKCLDMSIESVMLPPPWRLMPITAAAEAIWACSIEELGLENEAEKPSNALLTRAWSPGWSNADKLLNEFIEKQLIDYAKNSKKVVGNSTSLLSPYLHFGEISVRHVFQCARMKQIIWARDKNSEGEESADLFLRGIGLREYSRYICFNFPFTHEQSLLSHLRFFPWDADVDKFKAWRQGRTGYPLVDAGMRELWATGWMHNRIRVIVSSFAVKFLLLPWKWGMKYFWDTLLDADLECDILGWQYISGSIPDGHELDRLDNPALQGAKYDPEGEYIRQWLPELARLPTEWIHHPWDAPLTVLKASGVELGTNYAKPIVDIDTARELLAKAISRTREAQIMIGAAPDEIVADSFEALGANTIKEPGLCPSVSSNDQQVPSAV

Variants of: B1
assay-summary: yeast two-hybrid growth selection (MaV203; Gal4BD-CRY2(1-535) library x Gal4AD-CIB1; URA3 reporter on SC -Trp/-Leu/-Ura) in the dark, deep sequencing before and after selection, Enrich2 scoring; three independent screens (one at 48 h, two …)
experimental-parameters: with CIB1 (CRYPTOCHROME-INTERACTING BASIC-HELIX-LOOP-HELIX 1), dark (no blue light), screens 1, 3 and 4, Svar > 0 = enriched under dark selection for CRY2-CIB1 two-hybrid growth (URA3 reporter), < 0 = depleted, relative to wild type (whose scores are 0). 'The Enrich2 software calculates, parent: 0, not an affinity, scale: Enrich2 score, numbering: uniprot, sequence starts at 1

>  <variant-identifier>
W397G

>  <enrichment>
-0.823

$$$$
>  <variant-identifier>
D322A

>  <enrichment>
-0.241

$$$$
>  <variant-identifier>
Q398E

>  <enrichment>
1.41

$$$$
>  <variant-identifier>
H355L

>  <enrichment>
-0.0587

$$$$
>  <variant-identifier>
L340V

>  <enrichment>
-0.561

$$$$
>  <variant-identifier>
L385R

>  <enrichment>
-0.336

$$$$
>  <variant-identifier>
G344V

>  <enrichment>
-1.21

$$$$
>  <variant-identifier>
G352R

>  <enrichment>
-0.844

$$$$
>  <variant-identifier>
D322Y

>  <enrichment>
-0.959

$$$$
>  <variant-identifier>
G396A

>  <enrichment>
-1.05

$$$$
>  <variant-identifier>
K329N

>  <enrichment>
0.546

$$$$

Origin of measurements: paper PMC12212125
